Reference source for all entries: patent US20260174875A1

Target: T1, human amylin-3(a) receptor (human, UniProt P30988 25-474; O60896 24-148)
T1 sequence (looked up) 1: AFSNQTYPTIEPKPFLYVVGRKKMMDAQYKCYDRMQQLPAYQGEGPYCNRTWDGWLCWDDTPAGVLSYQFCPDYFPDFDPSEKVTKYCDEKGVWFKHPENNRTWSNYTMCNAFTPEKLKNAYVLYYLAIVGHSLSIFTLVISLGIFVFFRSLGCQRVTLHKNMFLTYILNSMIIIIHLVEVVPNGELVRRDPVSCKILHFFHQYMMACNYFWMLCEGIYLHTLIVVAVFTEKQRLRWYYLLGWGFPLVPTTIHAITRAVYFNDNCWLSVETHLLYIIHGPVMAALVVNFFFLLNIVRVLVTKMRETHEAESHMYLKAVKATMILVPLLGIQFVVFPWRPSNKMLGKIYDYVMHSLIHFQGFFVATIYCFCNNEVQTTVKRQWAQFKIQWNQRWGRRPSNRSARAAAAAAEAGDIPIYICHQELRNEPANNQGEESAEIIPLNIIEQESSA
T1 sequence (looked up) 2: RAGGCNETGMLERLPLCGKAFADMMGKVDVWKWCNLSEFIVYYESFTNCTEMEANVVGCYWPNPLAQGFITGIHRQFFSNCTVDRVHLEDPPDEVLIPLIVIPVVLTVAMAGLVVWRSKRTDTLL
Assay: cell-based or functional assay
Numbered stars: 1 amine (or outer) side, 2 acyl side, 3 side chain; on linkers, the order of the positions; unused ones are H or OH. Square brackets hold non-standard residues; d marks the D form. Side chains are listed from the residue outwards. * marks the point of attachment. C20 diacid = O=C(O)CCCCCCCCCCCCCCCCCCC(=O)*; C18 diacid = O=C(O)CCCCCCCCCCCCCCCCC(=O)*; γGlu = O=C(O)[C@H](CCC(=O)[*:2])N[*:1]; Chem. 28 = not defined here; AEEA = NCCOCCOCC(=O)O; Aib = CC(C)(N)C(=O)O
// reported hAMYR3 Potency, no HSA, EC50 [pM] for each item listed
Entry rule: numbers only, all in pM.

Compound 50 (reading uncertain) peptide: Y[Aib]EGTFTSDYSILLEEQAAREFIEWLLAGGPSSGEASHLSTAQTQRLSAELHK(Chem. 28)LATLPRTETGSGSP-NH2 = 3.2
Compound 60 (peptide) peptide: Y[Aib]EGTFTSDYSILLEEQAAREFIEWLLAGGPSSGALAQTLAQTLASHLSTAQTQRLSAELHK([AEEA-AEEA-γGlu-C20 diacid])LATLPRTETGSGSP-NH2 = 3.85
Compound 111 (peptide) peptide: Y[Aib]EGTFTSDYSILLEEQAAREFIEWLLAGGPSSGAGQAPGQAPGASHLSTAQTQRLSAELHRLK([AEEA-AEEA-AEEA-γGlu-C18 diacid])TLPRTETGSGSP-NH2 = 3.33

// moving on: another record for hAMYR3 Potency, no HSA, EC50 [pM]
May I ask what hAMYR3 Potency, no HSA, EC50 [pM] has been recorded for Compound 13 (peptide) peptide: Y[Aib]EGTFTSDYSILLEEQAAREFIEWLLAGGPSK([AEEA-AEEA-γGlu-C18 diacid])GAPPPSGGGGASELSTAALGRLSAELHRLATLPRTETGSGSP-NH2 ?
2.26
